Recorded values, source paper PMC9712074.

# SUBJECT_OF_TEST: SARS-CoV-2 (WT) Spike RBD Protein (His Tag) (SARS-CoV-2 ancestral (Wuhan-Hu-1), UniProt P0DTC2)
PARAMETER_MEASURED: binding result

BD55-5245 (antibody, V domains shown) VH: QVQLVQSGAEVKKPGSSVKVSCKASGGSLSSDGINWVRQAPGQGLEWLGRIIPIPGIADNAQKFQGRVTITADKSTSTAYMELSSLRSEDTAVYYCARAPPRGYSGYDLLGNDAFDIWGQGTMVTVSS VL: QSVLTQPPSVSGAPGQRVTISCTGSSSNIGAGYDVHWYQQLPGTAPKLLLYGNTNRPSGVPDRFTGSKSGTSASLAITGLQAEDEADYYCQSYDTSLSGSYVFGTGTKVAVL: binds
BD55-5201 (antibody, V domains shown) VH: QVQVVQSGAEVKKPGSSVKVSCEASGGTFSSDTIHWVRQAPGQGLEWMGRIIPIPGIVNYAQKFQGRVTITADKSTSIAYMELSSLRSEDTAVYYCASAPPRGYSGYDLLGNDPLDIWGQGTMVTVSS VL: QSVLTQPPSVSGAPGQRVTISCTGSSSNIGAGYDVHWYQQLPGTAPKFFISVNNNRPSGVPDRFSGSKSGTSASLAITGLQAEDEAVYYCQSFDSSLSGSYVFGTGTKVTVL: binds
